- System: CAKI-1
- assay comment: NCI tumour cell line growth inhibition, 48 h
Calls of active or inactive are those of the source. No stated cut-off is given here; in the data, active = GI50 up to about 1.1 µM and inactive = higher. Peptide text beside a SMILES is read from it. * marks the point of attachment. Boc = CC(C)(C)OC(=O)*
Catalogue of GI50 readings, one per entry.

>  <molecule>
O=C1CC=C2C3CC4N(CCC45c4ccccc4N1C25)C/C3=C\CO (stereo not given)

>  <GI50>
> 100 µM (inactive)

$$$$

Form field: GI50 recorded for CC1=Nc2ccccc2S(=O)(=O)N1 with CAKI-1 (enter value)
> 100 µM (inactive)

Another molecule: Cc1nc2c(sc3nc4ccccc4n32)c(=O)[nH]1
> 100 µM (inactive)

Another molecule: CC1=C(C(=O)Nc2ccccc2C)C(c2ccco2)C(C(=O)Nc2ccccc2C)=C(C)N1C
> 100 µM (inactive)

Another molecule: CC(NC(=O)OC(C)(C)C)C(=O)NC(Cc1ccccc1)C(=O)NCC(=O)O (stereo not drawn) (Boc-Ala-Phe-Gly-OH; configuration not given here)
> 100 µM (inactive)

Another molecule: O=C(CC(NC(=O)OCc1ccccc1)C(=O)NC1Cc2ccccc2C1=O)OCc1ccccc1 (stereo not given)
> 100 µM (inactive)

Another molecule: CC12C=CC(=O)C=C1CCC1C3CCC(O)(C(=O)CO)C3(C)CC(O)C12F (stereo not given)
> 100 µM (inactive)
